Test system: field bindweed (Convolvulus arvensis)
Test: Test E greenhouse herbicide test, pre- and postemergence
Assay type: in vivo
Settings: Preemergence, 31 g ai/ha; scale 0 to 100, 0 no effect, 100 complete control
Source text: […]
Everything with Plant response rating, Field Bindweed lower than 60 is criterion not met; everything else, including exactly 60, is criterion met.

Evaluate COC(=O)Oc1c(C)nn(C)c(=O)c1-c1c(C)sc2c(C)cc(C)cc12 : Plant response rating, Field Bindweed at minimum 60? criterion not met

Evaluate CC(=O)Oc1c(C)nn(C)c(=O)c1-c1c(C)cc(C)c2ccccc12 : Plant response rating, Field Bindweed at minimum 60? criterion met

Evaluate Cc1ccc2sc(C)c(-c3c(O)c(C)nn(C)c3=O)c2c1 : Plant response rating, Field Bindweed at minimum 60? criterion not met

Evaluate Cc1ccc2ccccc2c1-c1c(O)c(C)nn(C)c1=O : Plant response rating, Field Bindweed at minimum 60? criterion met

Evaluate C#CCOC(=O)Oc1c(C)nn(C)c(=O)c1-c1c(C)sc2ccc(C)cc12 : Plant response rating, Field Bindweed at minimum 60? criterion not met

Evaluate CCOC(=O)Oc1c(C)nn(C)c(=O)c1-c1c(CC)ccc2ccccc12 : Plant response rating, Field Bindweed at minimum 60? criterion met
